- System: MALME-3M melanoma
- MEASUREMENT_PROTOCOL: NCI tumour cell line growth inhibition, 48 h
OBSERVABLE: TGI

{"columns": ["COMPOUND", "OBSERVABLE", "ENDPOINT_VALUE"],
 "data": [
  ["CCC1(N=[N+]=[N-])C(=O)c2ccccc2N(c2ccccc2)C1=O (stereo not given)", "TGI", "> 100 µM"],
  ["O=S(=O)(NCCNc1cc(-c2cn(-c3ccccc3)nc2-c2cccc(O)c2)ccn1)c1ccc(Cl)cc1", "TGI", "5.47 µM"],
  ["O=c1oc2ccccc2c(O)c1C(c1ccc2c(c1)Cc1ccccc1-2)c1c(O)c2ccccc2oc1=O", "TGI", "71.4 µM"],
  ["Brc1ccc2c(c1)C1C(CO2)C(c2ccccc2)=NN1c1ccccc1 (stereo not given)", "TGI", "> 100 µM"],
  ["COC(=O)C1(C2CC/C(C)=C/CC/C(C)=C/CC[C@@]3(C)O[C@@H]3C2)CC1 (stereo not given in full)", "TGI", "> 100 µM"]
]}

* * *

Consider the following compounds and their measured TGI readings.
- Test system: SN12C renal
- MEASUREMENT_PROTOCOL: NCI tumour cell line growth inhibition, 48 h
OBSERVABLE: TGI (µM)

{"columns": ["COMPOUND", "QUALIFIER_SYMBOL", "ENDPOINT_VALUE"],
 "data": [
  ["CC(C)(CC#N)c1cc(CC(C)(C)c2cc(CC(C)(C)c3cc(C(C)(C)C4(C)OCCO4)no3)no2)no1", ">", 100],
  ["NC(=S)N1N=C(c2ccccc2O)CC1c1ccccc1 (centres undefined)", "=", 45.3],
  ["Cc1cc(C)n(C(=O)c2nn(-c3ccc(Cl)cc3)cc2O)n1", ">", 100],
  ["C(=C\\c1nccc2c1[nH]c1ccccc12)/c1ccccc1", "=", 76.7]
]}

* * *

- System: 786-0 renal
- MEASUREMENT_PROTOCOL: NCI tumour cell line growth inhibition, 48 h

{"columns": ["MOLECULE", "EXPERIMENTAL_TARGET", "TGI"],
 "data": [
  ["Cn1c2ccccc2c(=O)c2c([N+](=O)[O-])ccc(NCCN)c21", "786-0 renal", "20.6 µM"],
  ["COc1ccc(/C=C/C(=O)c2cc3c(N)c(C(=O)Nc4ccccc4C)sc3nc2C)cc1", "786-0 renal", "> 50 µM"],
  ["CC(O)(CNS(=O)(=O)c1ccccc1)c1ccccc1 (stereo not drawn)", "786-0 renal", "> 100 µM"],
  ["NC(=S)N/N=C\\c1nccc2c(N)cccc12", "786-0 renal", "0.737 µM"],
  ["C[C@H](CCC(=O)O)[C@H]1CC[C@H]2[C@@H]3[C@H](O)C[C@@H]4C[C@H](O)CC[C@]4(C)[C@H]3CC[C@]12C", "786-0 renal", "> 100 µM"],
  ["O=S(=O)(O)c1cc(N=Nc2cc(S(=O)(=O)O)c3cccnc3c2O)ccc1/C=C/c1ccc(N=Nc2cc(S(=O)(=O)O)c3cccnc3c2O)cc1S(=O)(=O)O", "786-0 renal", "> 100 µM"],
  ["O=C1c2ccccc2C(C2c3ccccc3C(=O)c3cc(Br)ccc32)c2ccc(Br)cc21 (stereo not drawn)", "786-0 renal", "> 100 µM"],
  ["Cc1ccc(CC(Cc2ccc(C)cc2C(=O)O)C(=O)O)cc1 (stereo not drawn)", "786-0 renal", "> 100 µM"],
  ["CC(C)(C)OC(=O)CN1CCc2c(sc3ncnc(N/N=C/c4cccc5ccccc45)c23)C1", "786-0 renal", "16.4 µM"],
  ["CC(=O)N/N=C1/CC[C@@]2(C)C(=CC[C@H]3C4CCC(C(C)CCCC(C)C)[C@@]4(C)CCC32)C1(C)C (stereo partly drawn)", "786-0 renal", "> 100 µM"],
  ["CC(C)c1cccc(C(=O)NCCN(C)C)c1[N+](=O)[O-]", "786-0 renal", "> 100 µM"],
  ["CS(=O)(=O)CCn1c(=O)c(Oc2ccc(F)cc2F)cc2cnc(NC3CCOCC3)nc21", "786-0 renal", "> 25 µM"],
  ["COC1CC(CC2CCC(C)C(C(C)C(=O)O)O2)OC2(OC(C)(C3CCC(C)(C4OC(C5OC(O)(CO)C(C)CC5C)CC4C)O3)CC2C)C1C (stereo not drawn)", "786-0 renal", "30.5 µM"],
  ["CC(=O)[C-](C(C)=O)c1ccccc1.CC(=O)[C-](C(C)=O)c1ccccc1.CC[O-].CC[O-].[Ti+4]", "786-0 renal", "> 100 µM"],
  ["COc1cc2c([C@@H](OC(=O)c3ccccc3)c3ccc4c(c3)OCO4)nccc2c(OC)c1OC", "786-0 renal", "> 100 µM"],
  ["CO[C@@]12C[C@H]3[C@@H]([C@@H](O)[C@@H](OC(=O)/C=C/c4ccccc4)[C@@]4(O)C(C)(C)CCC[C@]34C)[C@@H](C)C1=CC(=O)O2", "786-0 renal", "> 100 µM"],
  ["O=C(NNS(=O)(=O)c1ccc(F)cc1)c1cccnc1Nc1ccc(Cl)cc1Cl", "786-0 renal", "53.6 µM"],
  ["C/C(=N\\Nc1nc2ccccc2o1)c1cc(C)ncn1", "786-0 renal", "24.3 µM"]
]}

* * *

Consider the following compounds and their measured TGI readings.
- Test system: OVCAR-8 ovarian
- MEASUREMENT_PROTOCOL: NCI tumour cell line growth inhibition, 48 h
OBSERVABLE: TGI

{"columns": ["COMPOUND", "ENDPOINT_VALUE"],
 "data": [
  ["COc1cc([C@@H]2c3cc4c(cc3[C@@H](c3c(O)cc(O)c5c3O[C@H](c3ccc(O)c(O)c3)[C@H](OC(=O)c3cc(O)c(O)c(O)c3)C5)[C@H]3COC(=O)[C@H]23)OCO4)cc(OC)c1OC", "> 100 µM"],
  ["O=C(O)c1cscc1Cc1cccs1", "> 100 µM"],
  ["O=C1CC(c2ccc(Cl)cc2)C2(C(=O)NC(=O)NC2=O)C(c2ccc(Cl)cc2)C1 (stereo not drawn)", "> 75 µM"],
  ["CC1(C)CC(=O)c2c(nc(SSc3nc4c(c(-c5ccc(Br)cc5)c3C#N)C(=O)CC(C)(C)C4)c(C#N)c2-c2ccc(Br)cc2)C1", "> 10 µM"],
  ["O=C(NNS(=O)(=O)c1ccc(F)cc1)c1cccnc1Nc1ccc(Cl)cc1Cl", "> 100 µM"],
  ["C/C(N=Nc1nc2ccccc2[nH]1)=C1/C=CC=CN1O", "> 100 µM"],
  ["O=C(Nc1ccc(Cl)cc1)c1cc(S(=O)(=O)Nc2nnc(-c3ccccc3)c(-c3ccccc3)n2)c(SCc2ccccc2)cc1Cl", "> 71 µM"],
  ["O=C1CC2(CCC(O)(c3cccs3)C(C(=O)c3cccs3)C2)C(=O)c2ccccc2N1 (stereo not drawn)", "> 100 µM"]
]}

* * *

- Test system: SR leukemia
- MEASUREMENT_PROTOCOL: NCI tumour cell line growth inhibition, 48 h

{"columns": ["COMPOUND", "QUALIFIER_SYMBOL", "TGI [µM]"],
 "data": [
  ["NCCP(=O)(O)O", ">", 100],
  ["COc1cc2c(cc1OCCCCCCCCN1C(=O)c3cccc4cccc(c34)C1=O)N=C[C@@H]1CCCN1C2=O", "=", 21.7],
  ["N#Cc1c(N)nc2c(c1-c1ccc(Br)cc1)CSc1ccccc1-2", ">", 100],
  ["Cc1ccc(CC(Cc2ccc(C)cc2C(=O)O)C(=O)O)cc1 (stereo not given)", ">", 100],
  ["CCCCCOC(=O)c1cc2cc(CCl)ccc2oc1=O", "=", 67.5],
  ["CC1(C)CCCOc2cccc(c2)OCCCC(C)(C)C1=O", ">", 100],
  ["CNC(=O)CNC(=O)C(Cc1ccc(NC(=O)CCCCC(C)=O)cc1)NC(=O)C(CCC(=O)OCc1ccccc1)NC(=O)OC(C)(C)C (stereo not given)", ">", 100],
  ["CCCCCCCCCCCC(=O)c1c(O)cccc1O", "=", 49],
  ["Cc1nc2cc(Nc3nc(Nc4ccc(F)cc4)nc(N4CCN(C)CC4)n3)ccc2n1Cc1ccccc1", "=", 0.806],
  ["CCCCCCCCCCCCCCCC(=O)OC(COC(C)=O)CO[P+](=O)O (stereo not given)", "=", 62]
]}

* * *

- Tested on: COLO 205 colon
- MEASUREMENT_PROTOCOL: NCI tumour cell line growth inhibition, 48 h
Consider the following molecules and their measured TGI readings.
OBSERVABLE: TGI

{"columns": ["MOLECULE", "EXPERIMENTAL_TARGET", "OBSERVABLE", "ENDPOINT_VALUE"],
 "data": [
  ["COc1ccc(/C=C(/C)[N+](=O)[O-])cc1", "COLO 205 colon", "TGI", "4.3 µM"],
  ["NC(=S)N/N=c1\\cc(C(=O)Nc2ccc([N+](=O)[O-])cc2[N+](=O)[O-])oc2ccccc12", "COLO 205 colon", "TGI", "> 100 µM"],
  ["CCOC(=O)C1=COC(C)(c2ccccc2)CC1=O (configuration not stated)", "COLO 205 colon", "TGI", "> 100 µM"],
  ["CCCCNC(=O)CCN(C(=O)O)S(=O)(=O)c1ccc(NC(=O)c2ccccc2)cc1", "COLO 205 colon", "TGI", "> 100 µM"],
  ["CCO/C(O)=C(/C(=N)N1CCCC1)C(=O)Nc1ccc(F)cc1", "COLO 205 colon", "TGI", "> 100 µM"],
  ["O=C(Cn1c2ccc(Br)cc2c2nc3ccccc3nc21)N/N=C/c1ccccc1", "COLO 205 colon", "TGI", "> 100 µM"],
  ["COc1ccc2c(c1)cn1c3ccc(O)cc3[nH]c(=O)c21", "COLO 205 colon", "TGI", "2.83 µM"],
  ["CCCC(=O)OCC1OC(n2cc(F)c(=O)[nH]c2=O)C(F)C1OC(=O)CCC (configuration not stated)", "COLO 205 colon", "TGI", "> 100 µM"],
  ["CCOC(=O)c1sc2nc(-c3ccccc3)nn2c1CBr", "COLO 205 colon", "TGI", "3.73 µM"],
  ["Nc1nc(NCC2(CO)CCC2)cc(=O)[nH]1", "COLO 205 colon", "TGI", "> 100 µM"],
  ["Nc1cc(N2CCOCC2)nc(=O)n1-c1ccc(Cl)cc1", "COLO 205 colon", "TGI", "> 100 µM"],
  ["N#C/C(N)=C(\\C#N)N=Cc1csc2ccccc12", "COLO 205 colon", "TGI", "> 100 µM"],
  ["Cc1nc(Nc2ccccc2)sc1C(=O)NNc1ccc([N+](=O)[O-])cc1[N+](=O)[O-]", "COLO 205 colon", "TGI", "> 100 µM"],
  ["CC1(C)CCC[C@@]2(C)C1C(=O)[C@@H]1O[C@]1(C)[C@@H]2CO (some centres not stated)", "COLO 205 colon", "TGI", "85.1 µM"],
  ["C[N+](C)(C)CC(=O)N/N=C(/CC1OC(=O)c2ccccc21)c1ccccc1O (configuration not stated)", "COLO 205 colon", "TGI", "> 100 µM"],
  ["Cn1c2ccccc2c(=O)c2c([N+](=O)[O-])ccc(NCCN)c21", "COLO 205 colon", "TGI", "19.3 µM"],
  ["COc1cc(C)c(C)c(OC(=O)c2c(C)c(C)c(OC)c(C)c2OC)c1C", "COLO 205 colon", "TGI", "15.7 µM"],
  ["COc1cc2cc(Oc3ccc(NC(=O)Nc4ccc(Cl)c(C(F)(F)F)c4)cc3)c(C)nc2cc1OC", "COLO 205 colon", "TGI", "1.31 µM"],
  ["CS(=O)(=O)CCn1c(=O)c(Oc2ccc(F)cc2F)cc2cnc(NC3CCOCC3)nc21", "COLO 205 colon", "TGI", "> 25 µM"],
  ["O=C(O)C1(Cc2ccc3c(c2)CCC3)Cc2ccccc2C1=O (configuration not stated)", "COLO 205 colon", "TGI", "> 100 µM"],
  ["CC(=O)Oc1ccc(CO)cc1OC(C)=O", "COLO 205 colon", "TGI", "> 100 µM"],
  ["O=c1c2ccccc2[nH]c(=S)n1-c1ccc(N=Nc2cccc3cc(O)ccc23)cc1", "COLO 205 colon", "TGI", "> 100 µM"]
]}
